biological target: Pax6 DNA-binding domain (BD-Pax6) (Mus musculus (B6), UniProt P63015 190-289); experiment: EMSA; 10% glycerol, 20 mM HEPES pH 7.8, 45 mM KCl, 10 mM NaCl, 1 mM EDTA, 1 mM DTT, 0.2 ug/uL BSA, 0.1% NP-40, 50 ng poly-dIdC; 20 ng each GST protein; room temperature 30 min (heterodimers 4 C); 6% PAGE 0.25x TBE; settings: protein: recombinant; tags: GST (N-terminal, pGEX-6P-1); label: 32P-dCTP fill-in of the 5' (dG)5 overhangs of both strands (Methods; control probes are given with GGG)
Sequence (P63015 190-289): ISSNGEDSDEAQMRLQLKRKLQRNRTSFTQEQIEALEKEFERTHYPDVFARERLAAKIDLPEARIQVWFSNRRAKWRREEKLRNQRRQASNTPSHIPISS
measurementKind: binding result

binder	binding result
94 (dsDNA) DNA 1: GGGGGATCTGTAAAGGAAATTACTTTGTAGGAAATTTGATGGAACTGCCCCC DNA 2: GGGGGCAGTTCCATCAAATTTCCTACAAAGTAATTTCCTTTACAGATCCCCC	binds
89 (dsDNA) DNA 1: GGGGGCTACCACACCCAACCTCTAGTAAAGGTTTACAAAATGAATGACCCCC DNA 2: GGGGGTCATTCATTTTGTAAACCTTTACTAGAGGTTGGGTGTGGTAGCCCCC	binds
58 (dsDNA) DNA 1: GGGGGTGAGATGGAGGAAATAAGTCTTATTGTTGTTCTCCCCCCC DNA 2: GGGGGGGAGAACAACAATAAGACTTATTTCCTCCATCTCACCCCC	no binding
93 (dsDNA) DNA 1: GGGGGATAGAGGCACAAAAATTTCCAGAGACTGGCCCCC DNA 2: GGGGGCCAGTCTCTGGAAATTTTTGTGCCTCTATCCCCC	no binding
26 (dsDNA) DNA 1: GGGGGGTGGAGGCTTTGTGTAATCAGTCTGTGTACCCCC DNA 2: GGGGGTACACAGACTGATTACACAAAGCCTCCACCCCCC	no binding

# next binder below
Reported binding result for 104 (dsDNA) DNA 1: GGGGGCACAATTTTTATAATATATAATTGTTTCATCAACCCCC DNA 2: GGGGGTTGATGAAACAATTATATATTATAAAAATTGTGCCCCC was binds

Provenance of the data: paper PMC3713010
